For each record, write down the corresponding GI50.
system: CCRF-CEM; experiment: NCI tumour cell line growth inhibition, 48 h
Calls of active or inactive are those of the source. No stated cut-off is given here; in the data, active = GI50 up to about 1.1 µM and inactive = higher.

What does the data say about its GI50? Entry: `Oc1[nH]c(Nc2ccc(Cl)c(C(F)(F)F)c2)nc2ncnc1-2` 21 µM (inactive)

Record: NC1C/C(=N\O)c2c(Cl)sc(Cl)c21 (stereo not given) 3.17 µM (inactive)

Record: `O=c1c2c(c1=O)-c1ccccc1CN2` > 100 µM (inactive)

Record: `Oc1ncnc2c1sc(=S)n2-c1ccccc1` > 100 µM (inactive)

Record: `N#C/C(=C\c1ccc2ccccc2c1)C(=O)c1ccccc1` 23.8 µM (inactive)

Record: O=C(CC(NC(=O)C(F)(F)F)C(=O)O)OCc1ccccc1 (stereo not given) > 100 µM (inactive)

Record: `O=[N+]([O-])c1ccc(Sc2c3ccccc3nc3ccccc23)cc1` > 100 µM (inactive)

Record: `O=C1c2ccccc2C(=O)C1(Cl)C1(S(=O)(=O)O)c2ccccc2-c2ccccc21` > 100 µM (inactive)

Record: `CC#CCOC(=O)c1ccccc1OC(C)=O` > 100 µM (inactive)

Record: `C/C(=N\NC(=S)NNC(=S)N(C)c1ccccc1)c1ccccn1` 0.399 µM (active)

Record: CC(C)C(N)(C(=O)O)c1ccccc1 (stereo not given) > 100 µM (inactive)

Record: COc1ccc(CC(N)c2ccc(OC)cc2)cc1 (stereo not given) 70.5 µM (inactive)

Record: NP1(Oc2ccc(F)cc2)=NP(N)(Oc2ccc(F)cc2)=NP(Oc2ccc(F)cc2)(Oc2ccc(F)cc2)=N1 (stereo not given) 6.21 µM (inactive)

Record: CC(=O)O[C@H]1C(=O)[C@@]2(C)[C@H]([C@H](OC(=O)c3ccccc3)[C@]3(O)C[C@H](OC(=O)[C@H](O)[C@@H](NC(=O)CC(C)(C)C)c4ccccc4)C(C)=C1C3(C)C)C1(OC(C)=O)CO[C@@H]1C[C@@H]2O (stereo not given in full) 0.00171 µM (active)

Record: `O=S(O)CCCCCSSc1ccc(Cl)cc1` 4.49 µM (inactive)

Record: O=C(OC1CCC(=C2SCCCS2)[C@H]1C1SCCCS1)c1ccccc1 (stereo not given in full) > 100 µM (inactive)

Record: `C/C(=N\N=C(\N)SB(F)F)c1ccc2ccccc2c1` 4.37 µM (inactive)

Record: Cc1ncc([N+](=O)[O-])n1CC(O)Cn1cnc([N+](=O)[O-])n1 (stereo not given) > 100 µM (inactive)

Record: CC(=O)N/C(=C\c1ccc(/C=C(\NC(C)=O)C2=NC3C(=O)c4ccccc4C(=O)C3N2)cc1)C1=NC2C(=O)c3ccccc3C(=O)C2N1 (stereo not given) 0.865 µM (active)

Record: `CC(=O)OC[C@@H](OC(C)=O)[C@@H](OC(C)=O)[C@H]1OC[C@@H]2C[C@H]([C@H]1OC(C)=O)N(Cc1ccccc1)O2` > 100 µM (inactive)

Record: `CN(C)c1ccc(/C=C2\CCc3ccccc3C2=O)cc1Br` 36 µM (inactive)

Record: CC[C@H](CC[C@@H](C)[C@H]1CC[C@H]2[C@@H]3CC=C4C[C@@H](O)CC[C@]4(C)[C@H]3CC[C@]12C)C(C)C [BETA-SITOSTEROL] > 100 µM (inactive)

Record: COc1cc2c(cc1OC)-c1cc3ccc(OC)c(OC)c3c[n+]1CC2 [PALMATINE CHLORIDE] > 100 µM (inactive)

Record: `Cc1cc2c3ccccc3[nH]c2c2ccnc(C)c12` 2.29 µM (inactive)

Record: CNc1c2c(c3nc4ccccc4c4c3c1N=C4)NCCC2=O [PLAKINIDINE A] 1.9 µM (inactive)

Record: `COc1ccc(CN(CCc2c[nH]c3ccccc23)Cc2ccc(OC)cc2)cc1` 6.67 µM (inactive)

Record: `COc1cc2oc(=O)ccc2cc1C(=O)CC(C)C` > 100 µM (inactive)

Record: `COc1ccc([C@@H]2CC(=O)NCCCNCCCCNCCCN2)cc1` > 100 µM (inactive)

Record: O=C1OC(=O)C2C1C(c1ccccc1[N+](=O)[O-])C=C(c1ccco1)N2c1ccncc1 (stereo not given) 2.29 µM (inactive)

Record: `CN(C)c1nncc2[nH]nnc12` > 100 µM (inactive)

Record: COc1ccc(NC(=O)CC2SC(Nc3ccc(Cl)cc3C)=NC2=O)c([N+](=O)[O-])c1 (stereo not given) > 100 µM (inactive)

Record: `CC(C)(C)[C@H]1CCC2(OCCO2)[C@](O)(CCCO)C1` > 100 µM (inactive)

Record: CC1=Nc2ccccc2NC(c2ccoc2)C1 (stereo not given) > 100 µM (inactive)

Record: `COC(=O)c1c(O)c(C#N)c2[nH]c3ccccc3n2c1=O` > 100 µM (inactive)

Record: `O=C1c2c(O)cccc2C(C(=O)CCCCCC(=O)C2c3cccc(O)c3C(=O)c3c(O)cccc32)c2cccc(O)c21` 1.36 µM (inactive)

====

tested on: MDA-MB-435; experiment: NCI tumour cell line growth inhibition, 48 h
Counter-ions that a name gives are not always drawn. Activity calls are given as the source filed them. Cut-off read from the data, not from the text of the source: active = GI50 up to about 1.1 µM and inactive = higher.
Please reply with one of these outcomes: active, inactive

Hi, sorry to bother you, what did the test record for CC(=O)SSC1(Cl)C(C)(C)C(Cl)(SSC(C)=O)C1(C)C (stereo unspecified) ? inactive

Record: COc1ccc(COCC[C@H](C)OC2OC(CO[Si](C)(C)C(C)(C)C)C(O)C(O)C2O)cc1 (stereo partly specified) inactive

Record: COc1ccc(CC(N)c2ccc(OC)cc2)cc1 (stereo unspecified) inactive

Record: O=C(O)CN1CCCC(Cc2c[nH]c3ccccc23)C1 (stereo unspecified) inactive

Record: NP1(Oc2ccc(F)cc2)=NP(N)(Oc2ccc(F)cc2)=NP(Oc2ccc(F)cc2)(Oc2ccc(F)cc2)=N1 (stereo unspecified) inactive

Record: CN1C(=O)C23CCCC2CC1(c1ccccc1)S3 (stereo unspecified) inactive

Record: `COC(=O)c1c(O)c(C#N)c2[nH]c3ccccc3n2c1=O` inactive

Record: CC1OC(OC2C(OC(=O)[C@@H]3CC(C)(C)C[C@H]4C5=CC[C@@H]6[C@@]7(C)C[C@H](O)[C@H](OC8OC(CO)C(O)C(O)C8O)[C@@](C)(CO)[C@@H]7[C@H](O)C[C@@]6(C)[C@]5(C)CC[C@@]34C)OCC(O)C2O)C(O)C(O)C1O (stereo partly specified) inactive

Record: `CC(C)c1nc2cc(C(F)(F)F)ccc2[nH]c1=O` inactive

Record: `COc1cccc(C(=O)Oc2ccc(OS(=O)(=O)c3ccc(C)cc3)cc2)c1C#N` inactive

Record: CCOC(=O)C12CCC(c3c(C)cccc3C)(O1)C(C(=O)OC)=C2C(=O)OC (stereo unspecified) active

Record: `CC(=O)/C=C(/C=N/O)c1ccccc1` inactive

Record: `CC(C)(C)[C@H]1CCC2(OCCO2)[C@](O)(CCCO)C1` inactive

Record: Nc1ccc2cc3ccc(N)cc3nc2c1 [PROFLAVINE SULFATE] inactive

Record: `Clc1nc(Cl)c(Cl)c(Cl)n1` inactive

Record: `N#C/C(=C\c1ccc2ccccc2c1)C(=O)c1ccccc1` inactive

====

For each record, write down the corresponding GI50.
tested on: SK-MEL-5; assay: NCI tumour cell line growth inhibition, 48 h
The source made the active and inactive calls. No stated cut-off is given here; in the data, active = GI50 up to about 1.1 µM and inactive = higher.

Checklist item: GI50 tested on SK-MEL-5, entry CCc1ncnc2cc(OCC3CO3)c(OC)cc12 (stereo not drawn) , value? 6.34 µM (inactive)

Record: `CCC/C=C/C=C\C(=O)O[C@@H]1[C@@H](C)[C@]2(O)[C@@H]3C=C(C)C(=O)[C@H]3CC(COC(C)=O)=C[C@H]2[C@@H]2C(C)(C)[C@]12OC(C)=O` 16.4 µM (inactive)

Record: COC(=O)C1=CC[C@@H]2C(C(=O)O)=CO[C@@H](OC3OC(CO)C(O)C(O)C3O)[C@H]12 (stereo partly drawn) > 151 µM (inactive)

====

tested on: SN12C; experiment: NCI tumour cell line growth inhibition, 48 h
Calls of active or inactive are those of the source. No stated cut-off is given here; in the data, active = GI50 up to about 1.1 µM and inactive = higher.
For each record, write down the corresponding GI50.

What does the data say about its GI50? Entry: C=CC1C(OC2OC(CO)C(O)C(O)C2O)OC=C(C(=O)OC)C1CC=O (stereo not drawn) > 100 µM (inactive)

Record: `COc1cccc(C(=O)Oc2ccc(OS(=O)(=O)c3ccc(C)cc3)cc2)c1C#N` > 100 µM (inactive)

Record: `O=Cc1ccccc1COC(=O)c1cc(C(=O)OCc2ccccc2C=O)c(C(=O)OCc2ccccc2C=O)cc1C(=O)OCc1ccccc1C=O` > 100 µM (inactive)

Record: CC(C)(C)OC(=O)NC(Cc1ccccc1)OCc1ccccc1 (stereo not drawn) 26.1 µM (inactive)

Record: CC(C)(CN1CCCCC1)C(=O)CC(SCCN)c1ccc(Cl)cc1 (stereo not drawn) 1.49 µM (inactive)

Record: `CN1CCC/C1=C1/C(=O)N(c2ccccc2)N=C1c1ccc[nH]1` > 100 µM (inactive)

Record: `CC1=NN(c2nc(N)nc(/C(C#N)=C\c3cccc([N+](=O)[O-])c3)n2)C(C)(C)C1` 25.2 µM (inactive)

Record: O=P1(Oc2ccccc2)C(c2ccccc2)C(c2ccccc2)=NN1c1ccccc1 (stereo not drawn) 25.9 µM (inactive)
